tested on: RPMI-8226 leukemia; experiment: NCI tumour cell line growth inhibition, 48 h
MEASURED PROPERTY: TGI

Answered cases to consult:
# MOLECULE, REPORTED RESULT
data = [
    ("CCOC(=O)C1=C(C)Nc2ccccc2S1", "> 100 µM"),
    ("O=C1CCCN(c2ccccc2)N1", "> 100 µM"),
]

Please turn your attention to the following entry.
## Task Find the recorded TGI belonging to CCOC(=O)C1=C(C)N(c2ccccc2)C2=C(C(=O)N(c3ccccc3)C2c2ccccc2)C1c1ccccc1 (stereo not drawn) and report it.
## Result > 100 µM

----------
tested on: T-47D breast; experiment: NCI tumour cell line growth inhibition, 48 h
MEASURED PROPERTY: GI50

Answered cases to consult:
# SMILES TEXT, GI50
data = [
    ("Oc1ccccc1/C=N/Nc1ccc2ccccc2n1", "3.83 µM"),
    ("COc1ccc(-c2cc(-c3cc(Cl)ccc3Cl)nc3[nH]c(-c4cc(F)c(Cl)cc4Cl)cc(=O)c23)cc1", "> 100 µM"),
    ("CN(C)CC(=O)N1CCC(c2ccc(NC(=O)c3ncc(C#N)[nH]3)c(C3=CCCCC3)c2)CC1", "11.9 µM"),
]

API: the following record is the query input.
## Task Please look up its GI50: O=C(c1ccc2ccccc2c1)c1c(C(F)(F)F)n([O-])c2cc(Cl)c(Cl)cc2[n+]1=O
## Result 1.24 µM

----------
U251 CNS: recorded GI50 for assorted compounds

# COMPOUND, MEASURED PROPERTY, REPORTED RESULT
data = [
    ("CCOc1ccc(S(=O)(=O)/N=C2\\C=C(SCC(=O)O)C(=O)c3ccccc32)cc1", "GI50", "3.1 µM"),
    ("CCN1CCN(c2nc(NCCCNc3ccnc4cc(Cl)ccc34)c3ccccc3n2)CC1", "GI50", "2.66 µM"),
]

## Task Recorded GI50 of COc1ccc(-c2nn(-c3cccc(Cl)c3)cc2C2CC(c3ccccc3)=NN2C(C)=O)cc1 (stereo not drawn) , please.
## Result 3.15 µM

----------
# Lookup of reported GI50 keyed by entry
test system: SK-OV-3 ovarian; experiment: NCI tumour cell line growth inhibition, 48 h

Examples from the recorded data:
# SMILES TEXT, GI50
measured = [
    ("C=CC(=O)Nc1cccc(-c2nc(SC)nc(Nc3ccccc3OC)c2C#N)c1", "6.09 µM"),
    ("COc1ccc(/C=C/C=C(/C#N)C(N)=S)cc1", "96.1 µM"),
]

## Task Sample N#CC(=C1SCS1)[N+](=O)[O-] — what was its GI50?
## Result 5.35 µM

## Task Same question for N#Cc1c(-c2cccs2)c2c(=S)[nH]c(=S)[nH]c2[nH]c1=S please.
## Result 46 µM

----------
system: HL-60(TB) leukemia; assay: NCI tumour cell line growth inhibition, 48 h
MEASURED PROPERTY: TGI

// worked examples, TGI included
# MOLECULE, REPORTED RESULT
data = [
    ("COc1ccc(Nc2[nH]c(C(C)=O)c(N)c2C(=S)Nc2ccccc2)cc1", "> 100 µM"),
    ("CC(=O)OCC1OC(N2C(=O)/C(=C\\c3ccc(Cl)cc3)C(N)=Nc3ccccc32)C(OC(C)=O)C(OC(C)=O)C1OC(C)=O (stereo unspecified)", "> 100 µM"),
    ("COC1(C)CC2N(C(=O)c3ccccc3)N=C(c3ccccc3)CC2(C)O1 (stereo unspecified)", "> 100 µM"),
    ("CCOC(=O)c1cc2c([N+](=O)[O-])c(NC(C)=O)ccc2s1", "> 100 µM"),
    ("COc1ccc(C(=S)N2CCN(c3cccc(Cl)c3)CC2)cc1", "> 100 µM"),
]

API: the following record is the query input.
## Task What does the data say about its TGI? Entry: COc1ccc2nc(-c3ccc(OCc4ccccc4)cc3)ccc2c1
## Result > 100 µM
